Hey, just so you know, these numbers are from ChEMBL document CHEMBL5036331.

Exercise: for every item that follows, state its recorded Vd.
TEST SUMMARY: Volume of distribution at steady state in Wistar-Han rat blood at 0.3 to 0.5 mg/kg, iv measured upto 24 hrs by HPLC with LC-MS/MS
Type: ADME, organism-based
CONDITION: dose 0.3-0.5 mg/kg, read-out: Vdss
Write down the numeric answer in L/kg and omit the unit.

Can you look up the measured Vd of COc1cc(F)ccc1-c1nc(Nc2cc(F)cc(CS(C)(=N)=N)c2)ncc1F for me? 2.2

Can you look up the measured Vd of COc1cc(F)ccc1-c1ncnc(Nc2cccc(CS(C)(=N)=O)c2)n1 (stereo not drawn) for me? 1

Can you look up the measured Vd of COc1cc(F)ccc1-c1nc(Nc2cc(F)cc(CS(C)(=N)=O)c2)ncc1F (stereo in doubt) for me? 1.6
